assay-system: STE20-like serine/threonine-protein kinase (Homo sapiens)
Mark Criterion met only for ΔTm values smaller than 0.9 °C; exact matches and larger values are Criterion not met.

Below are worked cases with known answers.
- chemical-smiles: "CC(C)[C@H](CO)Nc1nc(Nc2cc(N)cc(Cl)c2)c2ncn(C(C)C)c2n1"
  assigned-class: "Criterion not met"
- chemical-smiles: "CCN(CC)CCNC(=O)c1c(C)[nH]c(/C=C2\\C(=O)Nc3ccc(F)cc32)c1C"
  assigned-class: "Criterion not met"
- chemical-smiles: "O=C(O)/C=C/c1cc(CO)ccc1CO"
  assigned-class: "Criterion met"
- chemical-smiles: "CCCCc1c(-c2ccc(O)cc2)[nH]c2nccnc12"
  assigned-class: "Criterion not met"
- chemical-smiles: "CC(C)n1cnc2c(NCc3ccccc3O)nc(NCCCO)nc21"
  assigned-class: "Criterion met"
- chemical-smiles: "O=S(=O)(c1cccc2c(Cl)cccc12)N1CCCNCC1"
  assigned-class: "Criterion met"

Is ΔTm of `O=C(O)c1cc(N(Cc2ccccc2O)Cc2cc(O)ccc2O)ccc1O` strictly below 0.9 °C?
Criterion met

Is ΔTm of `Cn1cc(C2=C(c3cn(CCCN)c4ccccc34)C(=O)NC2=O)c2ccccc21` strictly below 0.9 °C?
Criterion not met

Is ΔTm of `CCOc1cc(/C=C(\C#N)C(N)=O)cc(CSc2ccccc2)c1O` strictly below 0.9 °C?
Criterion met

###

Target or system Death-associated protein kinase 3 (Homo sapiens); recorded quantity ΔTm.
Please respond with the number in °C and leave the unit unwritten.

Enter measured ΔTm, system Death-associated protein kinase 3 (Homo sapiens), for the compound shown: O=C1Cc2c([nH]c3ccc(Br)cc23)-c2ccccc2N1 [KENPAULLONE]
0.4

Enter measured ΔTm, system Death-associated protein kinase 3 (Homo sapiens), for the compound shown: `NC(=O)c1ccc2[nH]c(-c3ccc(Oc4ccc(Cl)cc4)cc3)nc2c1`
1.2

Enter measured ΔTm, system Death-associated protein kinase 3 (Homo sapiens), for the compound shown: `Clc1ccc(Nc2nnc(Cc3ccncc3)c3ccccc23)cc1`
0

Enter measured ΔTm, system Death-associated protein kinase 3 (Homo sapiens), for the compound shown: CCOc1ccc(/C=C2/SC(=O)N(CCN)C2=O)cc1 [HIAZOLIDINEDIONE1]
0.3

Enter measured ΔTm, system Death-associated protein kinase 3 (Homo sapiens), for the compound shown: `Cc1nc2sccn2c(=O)c1CCN1CCC(=C(c2ccccc2)c2ccc(F)cc2)CC1`
4.2

Enter measured ΔTm, system Death-associated protein kinase 3 (Homo sapiens), for the compound shown: `COC1=C2C[C@@H](C)C[C@H](OC)[C@H](O)[C@@H](C)/C=C(\C)[C@H](OC(N)=O)[C@@H](OC)/C=C\C=C(/C)C(=O)NC(=CC1=O)C2=O`
-0.6

Enter measured ΔTm, system Death-associated protein kinase 3 (Homo sapiens), for the compound shown: `Cc1cncc2cccc(S(=O)(=O)N3CCCNC[C@@H]3C)c12`
4.8

###

Target or system Serine/threonine-protein kinase 25 (Homo sapiens) (UniProt O00506); recorded quantity ΔTm.
Please respond with the number in °C and leave the unit unwritten.

Enter measured ΔTm, system Serine/threonine-protein kinase 25 (Homo sapiens) (UniProt O00506), for the molecule shown: `Cn1cc(C2=C(c3cn(CCCN)c4ccccc34)C(=O)NC2=O)c2ccccc21`
2.3

Enter measured ΔTm, system Serine/threonine-protein kinase 25 (Homo sapiens) (UniProt O00506), for the molecule shown: `NC(=O)c1ccc(-c2nc(-c3ccc4c(c3)OCCO4)c(-c3ccccn3)[nH]2)cc1`
0

Enter measured ΔTm, system Serine/threonine-protein kinase 25 (Homo sapiens) (UniProt O00506), for the molecule shown: CN(C)c1ccc(CC2C(=O)Nc3ccccc32)cc1 (stereo not given)
2.4

Enter measured ΔTm, system Serine/threonine-protein kinase 25 (Homo sapiens) (UniProt O00506), for the molecule shown: `Nc1n[nH]c2nc3ccccc3nc12`
1.3

Enter measured ΔTm, system Serine/threonine-protein kinase 25 (Homo sapiens) (UniProt O00506), for the molecule shown: `O=C1Cc2c([nH]c3ccc(Br)cc23)-c2ccccc2N1`
2.7

Enter measured ΔTm, system Serine/threonine-protein kinase 25 (Homo sapiens) (UniProt O00506), for the molecule shown: `CC(=O)O/N=C1/C(=C2/C(=O)Nc3cc(Br)ccc32)Nc2ccccc21`
1.1

###

Target or system Dual specificity protein kinase CLK1 (Homo sapiens) (UniProt P49759); recorded quantity ΔTm.
Please respond with the number in °C and leave the unit unwritten.

Example compounds with recorded ΔTm:
- compound: "COc1cc2ncnc(Nc3cccc(Br)c3)c2cc1OC"
  ΔTm, °C: 1.7
- compound: "C[S+]([O-])c1ccc(-c2nc(-c3ccc(F)cc3)c(-c3ccncc3)[nH]2)cc1 (stereo not given) [SB-203580]"
  ΔTm, °C: -0.3
- compound: "CN(C)S(=O)(=O)c1ccc2c(c1)/C(=C/c1cc3c([nH]1)CCCC3)C(=O)N2"
  ΔTm, °C: 4.3
- compound: "CC(C)n1cnc2c(NCc3ccccc3)nc(NCCCO)nc21"
  ΔTm, °C: 2.6

Consider the record given below.
Enter measured ΔTm, system Dual specificity protein kinase CLK1 (Homo sapiens) (UniProt P49759), for the compound shown: CN(C)c1ncnc2nc[nH]c12 [DIMETHYLADENINE]
1.3

###

Target or system UniProt P00533; recorded quantity IC50.
Sequence (P00533 whole entry): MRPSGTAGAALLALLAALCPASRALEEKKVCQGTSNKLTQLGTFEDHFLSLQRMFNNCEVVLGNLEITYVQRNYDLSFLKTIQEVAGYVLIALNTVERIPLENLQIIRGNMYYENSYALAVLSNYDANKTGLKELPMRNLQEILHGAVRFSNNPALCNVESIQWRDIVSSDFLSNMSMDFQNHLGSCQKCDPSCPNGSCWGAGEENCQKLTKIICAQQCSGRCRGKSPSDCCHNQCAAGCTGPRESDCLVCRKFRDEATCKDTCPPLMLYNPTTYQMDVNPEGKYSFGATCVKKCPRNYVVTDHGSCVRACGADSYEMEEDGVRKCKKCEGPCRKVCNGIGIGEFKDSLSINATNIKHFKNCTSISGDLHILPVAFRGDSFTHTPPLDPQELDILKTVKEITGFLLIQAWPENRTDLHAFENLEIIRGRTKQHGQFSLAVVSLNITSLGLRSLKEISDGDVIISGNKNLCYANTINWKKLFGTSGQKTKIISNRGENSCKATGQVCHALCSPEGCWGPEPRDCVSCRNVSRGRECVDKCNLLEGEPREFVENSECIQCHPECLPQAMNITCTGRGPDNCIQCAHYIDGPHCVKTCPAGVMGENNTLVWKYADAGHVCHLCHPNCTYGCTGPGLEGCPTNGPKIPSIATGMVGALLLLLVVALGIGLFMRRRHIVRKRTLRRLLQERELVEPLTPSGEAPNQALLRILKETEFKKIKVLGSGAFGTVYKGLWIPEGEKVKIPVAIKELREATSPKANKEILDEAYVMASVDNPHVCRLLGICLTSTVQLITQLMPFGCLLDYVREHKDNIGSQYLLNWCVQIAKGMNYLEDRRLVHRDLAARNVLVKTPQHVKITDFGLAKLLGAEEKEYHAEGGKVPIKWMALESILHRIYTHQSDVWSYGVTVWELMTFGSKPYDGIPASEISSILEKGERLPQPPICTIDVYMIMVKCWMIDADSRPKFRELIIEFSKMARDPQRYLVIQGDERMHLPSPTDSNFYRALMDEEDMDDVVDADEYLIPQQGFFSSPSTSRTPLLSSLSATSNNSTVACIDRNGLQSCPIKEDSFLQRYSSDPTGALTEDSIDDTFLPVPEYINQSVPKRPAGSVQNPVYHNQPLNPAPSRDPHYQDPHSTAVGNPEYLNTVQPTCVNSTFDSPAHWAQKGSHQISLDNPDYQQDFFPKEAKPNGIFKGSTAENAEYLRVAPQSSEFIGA
Please respond with the number in µM and leave the unit unwritten.

- chemical-smiles: "Cc1cc(C=C2C(=O)C=CC2=O)cc(C)c1O"
  assay-system: "UniProt P00533"
  unit-spec: "µM"
  IC50: 440

Enter measured IC50, system UniProt P00533, for the compound shown: `O=c1ccc2ccc(O)c(O)c2o1`
7.67

###

Target or system Cyclin-dependent kinase 2 (Homo sapiens); recorded quantity ΔTm.
Field note: include the unit after the figure.

Example compounds with recorded ΔTm:
- compound: "O=C1Nc2ccccc2/C1=C/c1cnc[nH]1"
  ΔTm: "6.6 °C"
- compound: "O=C1NC(=O)C(c2cn(CCCn3ccnc3)c3ccccc23)=C1Nc1ccccc1"
  ΔTm: "0.4 °C"
- compound: "O=C1Nc2ccc(S(=O)(=O)O)cc2/C1=C1/Nc2ccccc2/C1=N\\O"
  ΔTm: "8.1 °C"
- compound: "NCCNc1ncc(C(N)=O)c(Nc2cccc(C(F)(F)F)c2)n1"
  ΔTm: "0.1 °C"
- compound: "COc1cc(OC)c(/C=C2\\C(=O)Nc3ccccc32)c(OC)c1"
  ΔTm: "0.5 °C"

Enter measured ΔTm, system Cyclin-dependent kinase 2 (Homo sapiens), for the compound shown: `NC(=O)c1ccc2[nH]c(-c3ccc(Oc4ccc(Cl)cc4)cc3)nc2c1`
-0.7 °C

Enter measured ΔTm, system Cyclin-dependent kinase 2 (Homo sapiens), for the compound shown: `O=C(Nc1cccc(Nc2nccc(Nc3cccc(C(F)(F)F)c3)n2)c1)C1CC1`
0 °C

###

Target or system Casein kinase I isoform gamma-3 (Homo sapiens) (UniProt Q9Y6M4); recorded quantity ΔTm.
Please respond with the number in °C and leave the unit unwritten.

- molecule: "O=C1NC(=O)c2c1c1c3ccccc3[nH]c1n1cncc21 [ISOGRANULATIMIDE]"
  unit-spec: "°C"
  ΔTm: 3.6
- molecule: "Cc1ccc(NC(=O)c2ccc(CN3CCN(C)CC3)cc2)cc1Nc1nccc(-c2cccnc2)n1"
  unit-spec: "°C"
  ΔTm: 0.3
- molecule: "COc1cc(C[C@H]2C(=O)OC[C@@H]2Cc2ccc(OC)c(OC)c2)ccc1O"
  unit-spec: "°C"
  ΔTm: 0.2
- molecule: "Cc1nc(Nc2ncc(C(=O)Nc3c(C)cccc3Cl)s2)cc(N2CCN(CCO)CC2)n1"
  unit-spec: "°C"
  ΔTm: 1.2
- molecule: "O=C1Cc2c([nH]c3ccc(Br)cc23)-c2ccccc2N1"
  unit-spec: "°C"
  ΔTm: 0.4
- molecule: "O=c1ccc2ccc(O)c(O)c2o1"
  unit-spec: "°C"
  ΔTm: 0.4
- molecule: "O=C1NC(=O)C(c2c[nH]c3ccccc23)=C1c1c[nH]c2ccccc12"
  unit-spec: "°C"
  ΔTm: 0.7
- molecule: "NC(=O)c1ccc(-c2nc(-c3ccc4c(c3)OCCO4)c(-c3ccccn3)[nH]2)cc1"
  unit-spec: "°C"
  ΔTm: 0.8

Please give measured ΔTm of the following entry: `CCOC(=O)c1cnc2oc3ccc(O)cc3c2c1-c1ccccc1`
1.1

Please give measured ΔTm of the following entry: `O=C1NC(=O)C(c2cn(CCCn3ccnc3)c3ccccc23)=C1Nc1ccccc1`
0.5

Please give measured ΔTm of the following entry: `CN1CCc2[nH]c(=S)c(C#N)c(-c3cccs3)c2C1`
0.2

Please give measured ΔTm of the following entry: `O=[N+]([O-])c1ccc(-c2nc(-c3ccc(F)cc3)c(-c3ccncc3)[nH]2)cc1`
2.6

Please give measured ΔTm of the following entry: `O=c1cc(N2CCOCC2)oc2c(-c3ccccc3)cccc12`
0.7

Please give measured ΔTm of the following entry: `CC(C)(C)c1nc2c3ccc(F)cc3c3c(=O)[nH]ccc3c2[nH]1`
0.8

Please give measured ΔTm of the following entry: `CC(C)n1cnc2/c(=N/c3cccc(Cl)c3)nc(NCCO)[nH]c21`
7

Please give measured ΔTm of the following entry: `CC(=O)O/N=C1/C(=C2/C(=O)Nc3cc(Br)ccc32)Nc2ccccc21`
0.5

Please give measured ΔTm of the following entry: `C/C(O)=C(\C#N)C(=O)Nc1cc(Br)ccc1Br`
0.3

Please give measured ΔTm of the following entry: `Clc1ccc(Nc2nnc(Cc3ccncc3)c3ccccc23)cc1`
-0.2

Please give measured ΔTm of the following entry: `N#C/C(=C(/N)Sc1ccc(N)cc1)c1ccccc1C(F)(F)F`
0.6

Please give measured ΔTm of the following entry: `O=C(O)c1cc(NCc2cc(O)ccc2O)ccc1O`
0.3

Please give measured ΔTm of the following entry: `O=C1Nc2ccccc2/C1=C\c1ccc[nH]1`
1.8
